Reference source: patent US20240189309A1

- System tested: TYK2 Pseudokinase (JH2) (Homo sapiens)
- Sequence (P29597 whole entry): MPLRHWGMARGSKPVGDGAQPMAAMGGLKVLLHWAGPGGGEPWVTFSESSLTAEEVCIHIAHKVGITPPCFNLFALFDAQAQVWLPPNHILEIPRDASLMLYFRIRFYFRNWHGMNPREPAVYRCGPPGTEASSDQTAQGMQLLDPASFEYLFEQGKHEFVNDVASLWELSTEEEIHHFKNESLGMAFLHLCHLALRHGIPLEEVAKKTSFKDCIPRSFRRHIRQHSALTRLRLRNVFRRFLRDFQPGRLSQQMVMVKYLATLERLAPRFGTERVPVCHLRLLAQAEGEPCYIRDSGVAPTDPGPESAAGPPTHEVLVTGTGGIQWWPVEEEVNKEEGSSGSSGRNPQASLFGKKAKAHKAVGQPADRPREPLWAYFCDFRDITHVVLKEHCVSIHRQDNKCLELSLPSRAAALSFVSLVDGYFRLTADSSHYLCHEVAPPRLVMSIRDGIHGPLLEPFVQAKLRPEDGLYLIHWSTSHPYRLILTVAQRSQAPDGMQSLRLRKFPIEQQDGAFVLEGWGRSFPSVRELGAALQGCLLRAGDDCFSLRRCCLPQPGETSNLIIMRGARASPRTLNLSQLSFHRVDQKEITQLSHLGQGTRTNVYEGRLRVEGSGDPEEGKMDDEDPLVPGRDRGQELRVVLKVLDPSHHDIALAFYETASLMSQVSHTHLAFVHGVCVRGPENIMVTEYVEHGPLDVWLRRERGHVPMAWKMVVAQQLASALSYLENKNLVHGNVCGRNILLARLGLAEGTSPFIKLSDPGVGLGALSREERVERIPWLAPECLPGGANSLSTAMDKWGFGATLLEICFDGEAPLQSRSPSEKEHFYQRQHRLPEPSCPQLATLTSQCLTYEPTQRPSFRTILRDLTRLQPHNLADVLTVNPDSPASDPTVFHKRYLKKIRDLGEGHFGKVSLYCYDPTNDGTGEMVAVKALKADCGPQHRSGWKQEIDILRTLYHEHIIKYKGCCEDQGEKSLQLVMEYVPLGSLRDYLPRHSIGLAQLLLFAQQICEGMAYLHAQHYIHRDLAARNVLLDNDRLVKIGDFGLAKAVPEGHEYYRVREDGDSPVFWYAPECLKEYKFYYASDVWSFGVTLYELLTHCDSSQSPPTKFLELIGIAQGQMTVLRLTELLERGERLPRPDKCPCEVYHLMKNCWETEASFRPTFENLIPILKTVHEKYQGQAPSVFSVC
- Measurement notes: HEK-Blue IFNα/β reporter assay (SEAP) for profiling TYK2 pseudokinase (JH2) inhibition
- Type: cell-based
- Cond: HEK-Blue IFNα/β cells, 1 ng/mL human recombinant IFNα, read-out: IFNα (TYK2 inhibitory activity, IC50)
Measured IC50 accompanies every entry in the list below.

1) [2H]C([2H])([2H])NC(=O)c1cnc(NC(=O)C2CC2)cc1Nc1nccc2c1N(C)Cc1nn(C)c(=O)n1-2 [Compound 21] : 30 to 300 nM
2) [2H]C([2H])([2H])NC(=O)c1cnc(NC(=O)C2CC2)cc1Nc1cccc2c1N(C)Cc1nn(C)c(=O)n1-2 [Compound 8] : < 30 nM

Ask: Sample [2H]C([2H])([2H])NC(=O)c1nnc(NC(=O)C2CC2)cc1Nc1cccc2c1N(C)Cc1nn(C)c(=O)n1-2 [Compound 17] — what was its IC50?
Reply: < 30 nM

Ask: Sample CNC(=O)c1nnc(Nc2ccc(F)cn2)cc1Nc1cccc2c1OCc1nnnn1-2 [Compound 4] — what was its IC50?
Reply: > 1000 nM

Ask: Sample [2H]C([2H])([2H])NC(=O)c1cnc(Nc2ccc(F)cn2)cc1Nc1cccc2c1N(C)Cc1nnnn1-2 [Compound 10] — what was its IC50?
Reply: 30 to 300 nM

Ask: Sample [2H]C([2H])([2H])NC(=O)c1nnc(NC(=O)C2CC2)cc1Nc1cccc2c1N(C)C[C@H]1CCC(=O)N21 [Compound 38] — what was its IC50?
Reply: 30 to 300 nM

Ask: Sample [2H]C([2H])([2H])NC(=O)c1nnc(NC(=O)C2CC2)cc1Nc1cc(F)cc2c1N(C)Cc1nn(C)c(=O)n1-2 [Compound 18] — what was its IC50?
Reply: 30 to 300 nM

Ask: Sample CNC(=O)c1nnc(NC(=O)C2CC2)cc1Nc1cccc2c1OCn1nnnc1-2 [Compound 5] — what was its IC50?
Reply: > 1000 nM

Ask: Sample [2H]C([2H])([2H])NC(=O)c1nnc(NC(=O)C2CC2)cc1Nc1nccc2c1N(C)Cc1sc(C)nc1-2 [Compound 36] — what was its IC50?
Reply: < 30 nM

Ask: Sample [2H]C([2H])([2H])NC(=O)c1nnc(NC(=O)C2CC2)cc1Nc1nccc2c1N(C)Cc1nn(C)c(=O)n1-2 [Compound 20] — what was its IC50?
Reply: < 30 nM

Ask: Sample [2H]C([2H])([2H])NC(=O)c1nnc(NC(=O)C2CC2)cc1Nc1cccc2c1N(C)Cc1sc(C)nc1-2 [Compound 35] — what was its IC50?
Reply: < 30 nM

Ask: Sample CNC(=O)c1nnc(NC(=O)C2CC2)cc1Nc1cccc2c1OCc1nn(C)c(=O)n1-2 [Compound 6] — what was its IC50?
Reply: > 1000 nM

Ask: Sample [2H]C([2H])([2H])NC(=O)c1cnc(Nc2cc(C)nc(C)n2)cc1Nc1cccc2c1N(C)Cc1nn(C)c(=O)n1-2 [Compound 12] — what was its IC50?
Reply: < 30 nM

Ask: Sample [2H]C([2H])([2H])NC(=O)c1cnc(NC(=O)C2CC2)cc1Nc1cc(F)cc2c1N(C)Cc1nn(C)c(=O)n1-2 [Compound 16] — what was its IC50?
Reply: < 30 nM
